Each entry below carries its recorded Kd.
# target_system: D614G Spike (SARS-CoV2)
Your answer is read as pM, so omit the unit and give the number.

Ab_28 scFv-Fc (scFv, V domains shown) VH: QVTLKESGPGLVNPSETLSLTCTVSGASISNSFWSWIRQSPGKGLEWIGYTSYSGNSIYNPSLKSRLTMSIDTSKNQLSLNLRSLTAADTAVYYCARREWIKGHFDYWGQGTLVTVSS VL: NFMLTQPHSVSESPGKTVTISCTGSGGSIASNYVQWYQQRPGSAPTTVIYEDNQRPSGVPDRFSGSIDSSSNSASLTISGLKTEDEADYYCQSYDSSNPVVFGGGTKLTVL | 9.41
Ab_16 scFv-Fc (scFv, V domains shown) VH: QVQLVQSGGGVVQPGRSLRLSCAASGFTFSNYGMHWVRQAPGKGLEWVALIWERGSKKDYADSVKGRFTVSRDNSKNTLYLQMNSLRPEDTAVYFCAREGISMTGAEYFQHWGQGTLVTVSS VL: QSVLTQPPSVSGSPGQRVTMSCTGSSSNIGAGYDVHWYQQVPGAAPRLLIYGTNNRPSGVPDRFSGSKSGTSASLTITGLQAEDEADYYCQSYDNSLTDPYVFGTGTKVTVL | 8.35
Ab_20 scFv-Fc (scFv, V domains shown) VH: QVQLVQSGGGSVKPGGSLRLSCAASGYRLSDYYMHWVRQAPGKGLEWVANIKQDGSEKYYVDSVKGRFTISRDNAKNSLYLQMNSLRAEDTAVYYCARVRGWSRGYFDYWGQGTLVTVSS VL: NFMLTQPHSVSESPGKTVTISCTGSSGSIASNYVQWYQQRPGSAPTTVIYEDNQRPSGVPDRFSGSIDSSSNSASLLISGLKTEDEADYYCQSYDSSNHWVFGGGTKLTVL | 8.64
Ab_18 scFv-Fc (scFv, V domains shown) VH: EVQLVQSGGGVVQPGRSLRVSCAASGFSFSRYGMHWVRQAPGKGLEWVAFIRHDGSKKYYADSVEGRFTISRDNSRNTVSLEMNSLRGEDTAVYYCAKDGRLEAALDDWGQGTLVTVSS VL: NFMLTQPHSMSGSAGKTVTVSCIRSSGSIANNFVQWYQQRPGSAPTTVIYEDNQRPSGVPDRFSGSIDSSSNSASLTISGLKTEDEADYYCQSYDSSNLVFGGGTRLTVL | 6.33

For record Ab_27 scFv-Fc (scFv, V domains shown) VH: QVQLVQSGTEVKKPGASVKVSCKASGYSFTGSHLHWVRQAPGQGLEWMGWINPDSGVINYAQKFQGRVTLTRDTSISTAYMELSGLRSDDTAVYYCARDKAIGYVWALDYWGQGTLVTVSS VL: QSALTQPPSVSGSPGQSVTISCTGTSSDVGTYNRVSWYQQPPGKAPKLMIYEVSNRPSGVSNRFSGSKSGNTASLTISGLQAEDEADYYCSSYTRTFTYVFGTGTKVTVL the listed Kd is 7.53
